systemUnderTest: PIK3R2 (Homo sapiens)
Construct: Dose response pull-down experiments were accomplished in Colo205 lysates; endogenous in cells
Sequence (O00459 whole entry): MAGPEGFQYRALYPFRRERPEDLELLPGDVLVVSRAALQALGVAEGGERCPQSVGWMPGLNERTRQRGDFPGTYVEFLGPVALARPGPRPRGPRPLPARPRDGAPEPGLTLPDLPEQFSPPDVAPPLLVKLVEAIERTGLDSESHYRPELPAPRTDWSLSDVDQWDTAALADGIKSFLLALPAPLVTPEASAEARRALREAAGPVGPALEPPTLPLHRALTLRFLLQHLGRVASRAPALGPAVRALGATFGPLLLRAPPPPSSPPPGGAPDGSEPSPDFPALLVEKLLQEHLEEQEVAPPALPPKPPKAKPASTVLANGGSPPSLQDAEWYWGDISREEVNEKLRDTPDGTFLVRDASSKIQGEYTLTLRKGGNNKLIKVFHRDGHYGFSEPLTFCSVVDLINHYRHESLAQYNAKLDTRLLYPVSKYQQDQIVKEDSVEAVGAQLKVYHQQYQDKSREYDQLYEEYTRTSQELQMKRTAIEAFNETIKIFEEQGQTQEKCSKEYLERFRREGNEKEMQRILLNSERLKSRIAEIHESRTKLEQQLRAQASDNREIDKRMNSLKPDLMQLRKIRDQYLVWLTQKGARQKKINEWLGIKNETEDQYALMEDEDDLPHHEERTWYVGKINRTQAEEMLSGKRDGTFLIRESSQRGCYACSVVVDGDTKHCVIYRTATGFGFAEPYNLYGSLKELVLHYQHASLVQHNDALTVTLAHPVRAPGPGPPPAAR
measurementDescription: Dose response competition pull-down with free compound 1 against immobilized probe 1 in Colo205 lysate
cond: Colo205 cell lysate, free compound 1 competing with immobilized probe 1
pIC50: −log10 of the molar value.

{"substanceSmiles": "CCCCCN(CCOCCOCCN)C(=O)[C@H](CCC(=O)O)NC(=O)[C@H](Cc1ccc(C(F)(F)P(=O)(O)O)cc1)NC(C)=O", "systemUnderTest": "PIK3R2 (Homo sapiens)", "pIC50": 4.65}

* * *

systemUnderTest: PIK3R1 (Homo sapiens)
Construct: Dose response pull-down experiments were accomplished in Colo205 lysates; endogenous in cells
Sequence (P27986 whole entry): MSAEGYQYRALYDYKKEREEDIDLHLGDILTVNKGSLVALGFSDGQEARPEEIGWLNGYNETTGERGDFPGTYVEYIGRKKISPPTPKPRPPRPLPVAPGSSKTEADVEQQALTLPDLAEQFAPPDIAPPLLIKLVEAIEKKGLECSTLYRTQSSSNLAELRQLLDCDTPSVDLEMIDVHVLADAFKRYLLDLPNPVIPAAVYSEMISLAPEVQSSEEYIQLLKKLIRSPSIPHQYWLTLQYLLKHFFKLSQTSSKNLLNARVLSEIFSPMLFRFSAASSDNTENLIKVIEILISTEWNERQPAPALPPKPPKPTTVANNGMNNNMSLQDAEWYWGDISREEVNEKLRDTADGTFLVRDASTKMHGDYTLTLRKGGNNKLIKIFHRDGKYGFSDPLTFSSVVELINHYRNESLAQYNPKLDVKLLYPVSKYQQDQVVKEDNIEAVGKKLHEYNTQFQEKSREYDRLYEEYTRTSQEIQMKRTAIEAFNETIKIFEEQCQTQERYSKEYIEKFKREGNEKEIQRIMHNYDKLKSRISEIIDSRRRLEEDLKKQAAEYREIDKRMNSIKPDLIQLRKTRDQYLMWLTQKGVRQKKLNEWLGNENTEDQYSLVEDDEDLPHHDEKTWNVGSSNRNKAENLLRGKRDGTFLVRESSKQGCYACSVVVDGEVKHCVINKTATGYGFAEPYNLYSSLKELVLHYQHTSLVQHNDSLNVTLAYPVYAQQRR
measurementDescription: Dose response competition pull-down with free compound 1 against immobilized probe 1 in Colo205 lysate
cond: Colo205 cell lysate, free compound 1 competing with immobilized probe 1
measuredMetric: IC50 (µM)

{"substanceSmiles": "CCCCCN(CCOCCOCCN)C(=O)[C@H](CCC(=O)O)NC(=O)[C@H](Cc1ccc(C(F)(F)P(=O)(O)O)cc1)NC(C)=O", "result": 10.3}

Ref: paper PMC4110944
